Assay: clinical
Assay type: in vivo, human
Details: human, in vivo, oral, Study day 22; read-out: Tmax (48-52) Median
measured.attribute: Tmax (h)
Entry rule: numbers only, all in h.

Req: Item CC(=O)O[C@H]1C(=O)[C@@]2(C)[C@H]([C@H](OC(=O)c3ccccc3)[C@]3(O)C[C@H](OC(=O)[C@H](O)[C@@H](NC(=O)c4ccccc4)c4ccccc4)C(C)=C1C3(C)C)[C@]1(OC(C)=O)CO[C@@H]1C[C@@H]2O [Paclitaxel] has what recorded Tmax?
Resp: 49

###

Test: clinical
Type: in vivo, human
Conditions: human, in vivo, oral, Study day 1; read-out: Tmax (24-48) Median
measured.attribute: Tmax
Number first, unit second.

Req: Item CC(=O)O[C@H]1C(=O)[C@@]2(C)[C@H]([C@H](OC(=O)c3ccccc3)[C@]3(O)C[C@H](OC(=O)[C@H](O)[C@@H](NC(=O)c4ccccc4)c4ccccc4)C(C)=C1C3(C)C)[C@]1(OC(C)=O)CO[C@@H]1C[C@@H]2O [Paclitaxel] has what recorded Tmax?
Resp: 25.5 h

###

Assay: clinical
Assay type: in vivo, human
Details: human, in vivo, oral, Study day 22; read-out: Cmax (24-48) Mean
measured.attribute: Cmax (µg/mL)
Entry rule: numbers only, all in µg/mL.

Req: Item CC(=O)O[C@H]1C(=O)[C@@]2(C)[C@H]([C@H](OC(=O)c3ccccc3)[C@]3(O)C[C@H](OC(=O)[C@H](O)[C@@H](NC(=O)c4ccccc4)c4ccccc4)C(C)=C1C3(C)C)[C@]1(OC(C)=O)CO[C@@H]1C[C@@H]2O has what recorded Cmax?
Resp: 0.289

###

Assay: clinical
Type: in vivo, human
Conditions: human, in vivo, oral, Study day 22; read-out: AUC (0-52) Mean
Description: Similarly, patients were readmitted to the clinic the preceding night dosing on week 4, day 1, and remained at the clinic until pharmacokinetic sampling was completed on Day 3 of that week. Analytical determination of pharmacokinetic parameters was conducted in patients who provided at least one post‐dose blood sample. The study weeks were counted consecutively starting from week 1 for pharmacokinetic sampling. […]
measured.attribute: AUC(0-t) (ng·h/mL)
Entry rule: numbers only, all in ng·h/mL.

Req: Item CC(=O)O[C@H]1C(=O)[C@@]2(C)[C@H]([C@H](OC(=O)c3ccccc3)[C@]3(O)C[C@H](OC(=O)[C@H](O)[C@@H](NC(=O)c4ccccc4)c4ccccc4)C(C)=C1C3(C)C)[C@]1(OC(C)=O)CO[C@@H]1C[C@@H]2O has what recorded AUC(0-t)?
Resp: 3520

###

Assay: clinical
Type: in vivo, human
Details: human, in vivo, oral, Study day 22; read-out: Cmax (0-24) Mean
measured.attribute: Cmax (ng/mL)
Entry rule: numbers only, all in ng/mL.

Req: Item CC(=O)O[C@H]1C(=O)[C@@]2(C)[C@H]([C@H](OC(=O)c3ccccc3)[C@]3(O)C[C@H](OC(=O)[C@H](O)[C@@H](NC(=O)c4ccccc4)c4ccccc4)C(C)=C1C3(C)C)[C@]1(OC(C)=O)CO[C@@H]1C[C@@H]2O has what recorded Cmax?
Resp: 329

###

Experiment: clinical
Type: in vivo, human
Conditions: human, in vivo, oral, Study day 1; read-out: Tmax (48-52) Median
measured.attribute: Tmax
Number first, unit second.

Req: Item CC(=O)O[C@H]1C(=O)[C@@]2(C)[C@H]([C@H](OC(=O)c3ccccc3)[C@]3(O)C[C@H](OC(=O)[C@H](O)[C@@H](NC(=O)c4ccccc4)c4ccccc4)C(C)=C1C3(C)C)[C@]1(OC(C)=O)CO[C@@H]1C[C@@H]2O has what recorded Tmax?
Resp: 49.3 h
